Target: Substance-K receptor (Rattus norvegicus) (UniProt P16610)
Sequence (P16610 whole entry): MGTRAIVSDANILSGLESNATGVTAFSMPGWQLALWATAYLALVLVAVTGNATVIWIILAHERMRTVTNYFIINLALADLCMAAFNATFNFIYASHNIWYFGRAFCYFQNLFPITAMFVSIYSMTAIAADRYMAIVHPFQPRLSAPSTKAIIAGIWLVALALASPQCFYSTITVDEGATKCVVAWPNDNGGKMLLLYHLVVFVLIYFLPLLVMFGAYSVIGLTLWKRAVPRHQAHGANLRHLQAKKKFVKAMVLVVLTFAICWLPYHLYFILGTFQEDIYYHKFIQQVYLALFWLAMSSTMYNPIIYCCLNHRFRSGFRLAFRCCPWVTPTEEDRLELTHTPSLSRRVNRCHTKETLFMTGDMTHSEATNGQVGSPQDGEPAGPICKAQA
Experiment: Compound was evaluated for antagonism of contractile response of rat colon muscularis mucosae (RC) at tachykinin receptor 2
Format: functional, tissue-based
Settings: Muscularis mucosa
// values below are reported pKB
property-measured: pKB

>>> data_value("CCCC[C@H](NC(=O)[C@@H]1CCCN1C(=O)[C@H]1CCCN1C(=O)[C@H](Cc1ccccc1)NC(=O)[C@@H](Cc1c[nH]c2ccccc12)NC(=O)[C@H](C)NC(=O)[C@H](CCCN=C(N)N)NC(C)=O)C(N)=O")
5.6
>>> data_value("CSCC[C@H](NC(=O)[C@@H]1CCCN1C(=O)[C@H]1CCCN1C(=O)[C@H](Cc1ccccc1)NC(=O)[C@@H](Cc1c[nH]c2ccccc12)NC(=O)[C@H](C)NC(=O)[C@H](CCCN=C(N)N)NC(=O)OC(C)(C)C)C(N)=O")
6.2

====

# pKB annotations
Molecular target: Substance-P receptor (Cavia porcellus)
Assay: Compound was evaluated for antagonism of contractile response of guinea pig ileum longitudinal smooth muscle (GPI) at tachykinin receptor 1
Type: functional, tissue-based
property-measured: pKB

>>> data_value("CNC(=O)[C@@H]1CCCN1C(=O)[C@H]1CCCN1C(=O)[C@H](Cc1ccccc1)NC(=O)[C@@H](Cc1c[nH]c2ccccc12)NC(=O)[C@H](C)NC(=O)[C@H](CCCN=C(N)N)NC(=O)OC(C)(C)C")
5.1
>>> data_value("CCCC[C@H](NC(=O)[C@@H]1CCCN1C(=O)[C@H]1CCCN1C(=O)[C@H](Cc1ccccc1)NC(=O)[C@@H](Cc1c[nH]c2ccccc12)NC(=O)[C@H](C)NC(=O)[C@H](CCC(=O)OCc1ccccc1)NC(=O)OC(C)(C)C)C(N)=O")
6.6

====

pKB for assorted compounds
Target: Substance-K receptor (Rattus norvegicus)
Test: Compound was evaluated for antagonism of contractile response of rat colon muscularis mucosae (RC) at tachykinin receptor 2
Assay type: functional, tissue-based
Details: Muscularis mucosa
property-measured: pKB

>>> data_value("CCCC[C@H](NC(=O)[C@H](CC(C)C)NC(=O)[C@@H](Cc1c[nH]c2ccccc12)NC(=O)[C@H](Cc1ccccc1)NC(=O)[C@@H](Cc1c[nH]c2ccccc12)NC(=O)[C@H](C)NC(=O)[C@H](CCCN=C(N)N)NC(=O)OC(C)(C)C)C(N)=O")
6.5
>>> data_value("CCCC[C@H](NC(=O)[C@@H]1CCCN1C(=O)[C@H]1CCCN1C(=O)[C@H](Cc1ccccc1)NC(=O)[C@H]1CCCN1C(=O)[C@H](C)NC(=O)[C@H](CCCN=C(N)N)NC(=O)OC(C)(C)C)C(N)=O")
5.2
>>> data_value("CCCC[C@H](NC(=O)[C@@H]1CCCN1C(=O)[C@H]1CCCN1C(=O)[C@H](Cc1ccccc1)NC(=O)[C@H](Cc1c[nH]c2ccccc12)NC(=O)[C@H](C)NC(=O)[C@H](CCCN=C(N)N)NC(=O)OC(C)(C)C)C(N)=O")
6.4
>>> data_value("CCCC[C@H](NC(=O)[C@@H]1CCCN1C(=O)[C@H]1CCCN1C(=O)[C@H](Cc1ccccc1)NC(=O)[C@@H](Cc1ccccc1)NC(=O)[C@H](C)NC(=O)[C@H](CCCN=C(N)N)NC(=O)OC(C)(C)C)C(N)=O")
6.4
>>> data_value("CSCC[C@@H](NC(=O)[C@H](CC(C)C)NC(=O)[C@H]1CCCN1C(=O)[C@H](Cc1ccccc1)NC(=O)[C@@H](Cc1c[nH]c2ccccc12)NC(=O)[C@H](C)NC(=O)[C@@H](N)CCCN=C(N)N)C(N)=O")
5.7
